# Tested on: SNB-19
# Assay Explanation: NCI tumour cell line growth inhibition, 48 h
Activity calls are given as the source filed them. No stated cut-off is given here; in the data, active = GI50 up to about 1.1 µM and inactive = higher.
Attribute Measured: GI50

Would you please look over these solved cases?
> print(dat)
                                   molecule  experimental.result
1  C/C(=N\NC(N)=S)c1sc(-n2nc(-c3ccccc3)cc2-c2ccccc2)nc1C  > 100 µM (inactive)
2  COC(=O)C12C3C4C1C1C2C3C41I (stereo unspecified)  > 100 µM (inactive)
3  C=C1C(=O)O[C@H]2C/C(C)=C/CC/C(C)=C/CC[C@@](C)(O)[C@@H](I)C[C@@H]12     15 µM (inactive)
4  CC(=O)C(CN1CCOCC1)C(c1ccccc1)c1c(O)c2ccccc2oc1=O (stereo unspecified)  > 100 µM (inactive)
5  COc1cccc2c1CCc1c(-c3ccc(F)cc3)cc(-c3ccc4ccccc4n3)nc1-2  > 100 µM (inactive)

Here is the next item to consider.
Consider the molecule N#CC(C#N)=c1c(=O)c2c3ccccc3cc3cccc1c32 . State its measured GI50.
> 100 µM (inactive)
